Tested On: Histamine H1 receptor (Cavia porcellus) (UniProt P31389)
Sequence (P31389 whole entry): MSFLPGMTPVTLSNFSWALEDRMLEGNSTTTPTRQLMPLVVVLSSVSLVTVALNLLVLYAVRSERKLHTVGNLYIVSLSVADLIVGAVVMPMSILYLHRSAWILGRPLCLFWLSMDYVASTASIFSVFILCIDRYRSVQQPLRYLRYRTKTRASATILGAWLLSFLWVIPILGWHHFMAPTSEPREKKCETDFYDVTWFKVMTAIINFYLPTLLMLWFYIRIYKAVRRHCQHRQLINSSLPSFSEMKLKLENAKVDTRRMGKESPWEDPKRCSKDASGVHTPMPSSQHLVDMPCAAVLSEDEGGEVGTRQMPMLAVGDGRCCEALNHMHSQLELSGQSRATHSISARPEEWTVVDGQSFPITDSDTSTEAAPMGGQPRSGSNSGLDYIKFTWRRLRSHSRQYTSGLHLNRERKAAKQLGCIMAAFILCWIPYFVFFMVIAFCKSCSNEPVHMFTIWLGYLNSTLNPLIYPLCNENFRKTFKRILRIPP
Protocol Description: Inhibition of H1 receptor in Cavia porcellus Hartley (guinea pig) ileum assessed as inhibition of histamine-induced spasms incubated 2 min prior histamine-challenge relative to acrivastine
Type: tissue-based
The reader will find reported Emax values listed item by item below.
State the answer as a number, implicitly in %.

- Smiles String: "CC(C)(CO)NC=C1C(=O)NC(=O)NC1=O"
  Tested On: "Histamine H1 receptor (Cavia porcellus) (UniProt P31389)"
  Emax [%]: 65
- Smiles String: "CC(C)(CO)N1C(=O)c2ccccc2C1=O"
  Tested On: "Histamine H1 receptor (Cavia porcellus) (UniProt P31389)"
  Emax [%]: 0
- Smiles String: "CC(C)(CO)NCC(C)(C)N1C(=O)c2ccccc2C1=O"
  Tested On: "Histamine H1 receptor (Cavia porcellus) (UniProt P31389)"
  Emax [%]: 20

Name the recorded Emax for `CC(CO)(CO)NCc1nc2ccccc2[nH]1` .
14.2

Name the recorded Emax for `OCCN(Cc1nc2ccccc2[nH]1)c1nc2ccccc2[nH]1` .
11

Name the recorded Emax for `CC(C)CNCC(C)(C)N1C(=O)c2ccccc2C1=O` .
18

Name the recorded Emax for `CCOC(=O)N1CCN(C=C2C(=O)NC(=O)NC2=O)CC1` .
25

* * *

Tested On: Histamine H1 receptor (Cavia porcellus) (UniProt P31389)
Protocol Description: Inhibition of H1 receptor in Cavia porcellus Hartley (guinea pig) ileum assessed as inhibition of histamine-induced spasms incubated at 10 '-4 M 2 min prior histamine-challenge
Assay type: tissue-based
Given measured inhibition, output class 1 if it is greater than or equal to 40% and class 0 if not.

- Molecule: "CCOC(=O)N1CCN(C=C2C(=O)NC(=O)NC2=O)CC1"
  Assigned Label: "class 0"

Identify whether the reported inhibition of the following molecule is 40% or greater: `CC(C)(CO)NCC(C)(C)N1C(=O)c2ccccc2C1=O`
class 0

* * *

Tested On: Histamine H1 receptor (Cavia porcellus) (UniProt P31389)
Protocol Description: Inhibition of H1 receptor in Cavia porcellus Hartley (guinea pig) ileum assessed as inhibition of histamine-induced spasms incubated at 10 '-4 M 2 min prior histamine-challenge
Assay type: tissue-based
Given measured inhibition, output True if it is greater than or equal to 60% and False if not.

The following compounds have reported results that may help.
- Compound: "Cc1ccc(/C(=C\\CN2CCCC2)c2cccc(/C=C/C(=O)O)n2)cc1"
  Assigned Label: "True"
- Compound: "O=C1c2ccccc2C(=O)N1CC(O)CNC1CCCCC1 (racemic)"
  Assigned Label: "False"
- Compound: "CC(CO)(CO)NCCCN1C(=O)c2ccccc2C1=O"
  Assigned Label: "False"
- Compound: "O=C1NC(=O)C(=CN2CCOCC2)C(=O)N1"
  Assigned Label: "True"
- Compound: "O=C1NC(=O)C(=CNC2CCCCC2)C(=O)N1"
  Assigned Label: "True"
- Compound: "CC(C)(CO)N1C(=O)c2ccccc2C1=O"
  Assigned Label: "False"
- Compound: "CC(CO)(CO)Nc1nc2ccccc2[nH]1"
  Assigned Label: "False"
- Compound: "OCCN(Cc1nc2ccccc2[nH]1)c1nc2ccccc2[nH]1"
  Assigned Label: "False"

Identify whether the reported inhibition of the following compound is 60% or greater: `CC(CO)(CO)NCc1nc2ccccc2[nH]1`
False

Identify whether the reported inhibition of the following compound is 60% or greater: `CC(C)(CO)NC=C1C(=O)NC(=O)NC1=O`
True

Identify whether the reported inhibition of the following compound is 60% or greater: `CC(C)CNCC(C)(C)N1C(=O)c2ccccc2C1=O`
False

Each recorded value in this set is attributed to ChEMBL document CHEMBL3046530.
